assay_method_text: Solubility of the compound in […] by UPLC method
Assay type: physicochemical
quantity_kind: solubility (µM)

molecule	observed
Cc1cccc(-c2noc(C3CC(=O)N(c4ccc(F)cc4)C3)n2)n1 (stereo not given)	26

A. CC(C)CN1CC(c2nc(-c3cccc(Cl)c3)no2)CC1=O (stereo not given)
B. Cc1cccc(-c2noc(C3CC(=O)N(c4ccc(F)cc4)C3)n2)c1 (racemic)
Record comparison, field solubility: mark the lower of A and B . Pick one; state its label.
B
(B: 2.7 µM, A: 23 µM)

----------
target_under_test: UniProt:P41594
Sequence (P41594 21-1212 limits assumed): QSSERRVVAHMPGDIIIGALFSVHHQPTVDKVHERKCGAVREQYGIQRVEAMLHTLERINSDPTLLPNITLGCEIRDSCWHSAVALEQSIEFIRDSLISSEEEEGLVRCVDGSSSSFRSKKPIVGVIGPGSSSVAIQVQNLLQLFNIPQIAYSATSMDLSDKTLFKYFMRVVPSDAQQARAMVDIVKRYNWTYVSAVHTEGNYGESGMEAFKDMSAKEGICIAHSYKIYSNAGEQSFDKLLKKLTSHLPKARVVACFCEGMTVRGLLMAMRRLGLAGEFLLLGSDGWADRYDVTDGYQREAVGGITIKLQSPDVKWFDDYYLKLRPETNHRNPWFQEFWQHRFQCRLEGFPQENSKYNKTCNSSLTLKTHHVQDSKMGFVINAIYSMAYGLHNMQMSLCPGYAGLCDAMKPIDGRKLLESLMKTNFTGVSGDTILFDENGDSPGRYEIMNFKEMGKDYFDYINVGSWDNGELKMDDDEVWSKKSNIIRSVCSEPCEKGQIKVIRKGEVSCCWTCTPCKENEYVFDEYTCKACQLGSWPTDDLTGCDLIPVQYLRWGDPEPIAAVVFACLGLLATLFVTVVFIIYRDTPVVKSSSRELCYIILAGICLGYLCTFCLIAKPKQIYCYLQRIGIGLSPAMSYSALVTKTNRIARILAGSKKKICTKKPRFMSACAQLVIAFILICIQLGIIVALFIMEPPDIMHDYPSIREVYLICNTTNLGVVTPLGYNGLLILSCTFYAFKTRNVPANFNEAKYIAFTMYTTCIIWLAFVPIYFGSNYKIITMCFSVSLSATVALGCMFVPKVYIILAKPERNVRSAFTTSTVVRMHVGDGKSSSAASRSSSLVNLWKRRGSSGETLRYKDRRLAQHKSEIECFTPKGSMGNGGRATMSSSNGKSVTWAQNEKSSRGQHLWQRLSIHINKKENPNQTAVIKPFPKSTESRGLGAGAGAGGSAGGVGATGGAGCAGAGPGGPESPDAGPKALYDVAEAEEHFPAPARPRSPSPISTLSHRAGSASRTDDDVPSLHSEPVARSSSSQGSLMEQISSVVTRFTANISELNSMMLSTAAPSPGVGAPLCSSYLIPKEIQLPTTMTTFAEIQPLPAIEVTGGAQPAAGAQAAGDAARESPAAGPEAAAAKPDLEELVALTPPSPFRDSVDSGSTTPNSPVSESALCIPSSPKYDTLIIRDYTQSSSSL
assay_method_text: Positive allosteric modulation of human mGluR5 expressed in HEK293A cells assessed as stimulation of glutamate-induced calcium flux by FLIPR method
Type: functional, cell-based
particulars: HEK293-A
quantity_kind: Emax (%)

Worked cases, answers included:
compound	target_under_test	quantity_kind	observed
O=C1CC(c2nc(-c3cccc(F)c3)no2)CN1c1ccc(Cl)cc1 (centres undefined)	UniProt:P41594	Emax	120
O=C1CC(c2nc(-c3cccc(Cl)c3)no2)CN1c1ccc(Cl)cc1 (centres undefined)	UniProt:P41594	Emax	67

P. Cc1cccc(-c2noc(C3CC(=O)N(c4ccc(Cl)cc4)C3)n2)n1 (centres undefined)
Q. O=C1CC(c2nc(-c3ccccn3)no2)CN1c1ccc(F)cc1 (centres undefined)
Record comparison, field Emax: mark the lower of P and Q . Pick one; state its label.
Q
(Q: -41%, P: 1%)

A. O=C1CC(c2nc(-c3ccccc3)no2)CN1c1ccc(F)cc1 (centres undefined)
B. O=C1CC(c2nc(-c3cccc(Cl)c3)no2)CN1c1ccc(Cl)c(Cl)c1 (centres undefined)
C. O=C1CC(c2nc(-c3cccc(Cl)c3)no2)CN1c1cccc(Cl)c1 (centres undefined)
D. O=C1CC(c2nc(-c3ccc(F)cc3)no2)CN1c1ccc(Cl)cc1 (centres undefined)
Sort these compounds on Emax so the largest reading comes first. Arrange the labels as the request states and list them.
A, B, D, C

a. O=C1CC(c2nc(-c3ccc(F)cc3)no2)CN1c1ccc(Cl)c(Cl)c1 (centres undefined)
b. O=C1CC(c2nc(-c3cccc(Cl)c3)no2)CN1c1ccccc1F (centres undefined)
Record comparison, field Emax: mark the lower of a and b . Pick one; state its label.
b
(b: -29%, a: 44%)

I. COc1cccc(-c2noc(C3CC(=O)N(c4ccc(F)cc4)C3)n2)c1 (centres undefined)
II. O=C1COc2ccccc2N1Cc1nc(-c2cccc(Cl)c2)no1
Hi there! Just curious which has the higher Emax between I and II . Pick one; state its label.
I

1. Cc1cccc(-c2noc(C3CC(=O)N(c4ccc(Cl)c(Cl)c4)C3)n2)c1 (centres undefined)
2. Cc1cccc(-c2noc(C3CC(=O)N(c4ccc(F)cc4)C3)n2)n1 (centres undefined)
Hi there! Just curious which has the higher Emax between 1 and 2 . Pick one; state its label.
1

1. Cc1ccc(N2CC(c3nc(-c4cccc(C)c4)no3)CC2=O)cc1 (centres undefined)
2. Cc1ccccc1N1CC(c2nc(-c3cccc(Cl)c3)no2)CC1=O (centres undefined)
3. O=C1CC(c2nc(-c3ccc(Cl)cc3)no2)CN1c1ccc(Cl)c(Cl)c1 (centres undefined)
Would you mind ranking these compounds by ascending Emax? Arrange the labels as the request states and list them.
2, 3, 1
